Task for the reader: assign each of the following compounds its reported melting point.

Guide cases for melting point, answers given:
>  <compound>
O=C(NCCC1CCCCC1)c1cc(-c2cccnc2C(=O)O)ccc1Cl [Example 11]

>  <property>
melting point

>  <observed>
104 to 107 °C

$$$$
>  <compound>
O=C(NCCC1CCCCC1)c1cc(-c2ccccc2C(=O)O)ccc1Cl [Example 9]

>  <property>
melting point

>  <observed>
191 to 193 °C

$$$$

Now look at this one.
Look at this compound and give its reported melting point. O=C(NCC1(CO)CCCCCC1)c1cc(-c2ccccc2C(=O)O)ccc1Cl [Example 14]
175 to 177 °C

Provenance of the data: patent US20080146612A1
